- Assay Info: folding enthalpy; higher = less favourable; fluorescence melt of hairpins on a sequencing array, two-state fit
- Measurement Parameters: sodium 0.088 M
Classify as follows. Reported folding enthalpy greater than or equal to -20 kcal/mol: MET. Reported folding enthalpy below: NOT MET.

## Task Does the reported folding enthalpy for GCTGGGCGAAAGCCTAGC (((.(((....))).))) fall at or above the -20 kcal/mol mark?
## Result NOT MET

## Task // next record GATTACCCGAAAGGGATC (((..(((....))))))
## Result MET

## Task // next record GGGGACGAAAGTCGCCC ((((((....))).)))
## Result MET

## Task // next record GGTATTGCGAAAGCAACC (((..(((....))))))
## Result MET

## Task // next record GAGTCTCCGAAAGGACTC (((..(((....))))))
## Result NOT MET

## Task // next record ACCCTGAAAAGGGT (((((....)))))
## Result MET

## Task // next record GCTGGGCGAAAGCCAAGC (((.(((....))).)))
## Result NOT MET

## Task // next record GAGCCCGAAAGGGTCTC ((((((....))).)))
## Result NOT MET

## Task // next record GTGCCCCGAAAGGGTCAC (((.(((....))).)))
## Result NOT MET
